Assay: THESA assay for determination of the thermodynamic solubility
Assay type: physicochemical
Conditions: 22.5 °C, aqueous buffer, thermodynamic from solid, second figure of the cell, 50 mM phosphate buffer, room temperature (22.5±1° C.), read-out: THESA (IC50/THESA, Example No. present appl.)
measurementName: solubility thermodynamic (µg/mL)

{"compound": "C[C@](O)(C(=O)NCC(F)(F)F)C(=O)N[C@@H]1C(=O)N(CC(F)(F)F)c2ccccc2-c2ccccc21 [Example 13b]", "uom": "µg/mL", "measuredResult": 14}
{"compound": "C[C@](O)(C(=O)NCC(F)(F)C(F)(F)F)C(=O)N[C@@H]1C(=O)Nc2ccccc2-c2ccccc21 [Example 1c]", "uom": "µg/mL", "measuredResult": 14}
{"compound": "C[C@](O)(C(=O)NCC(F)(F)F)C(=O)N[C@@H]1C(=O)Nc2ccccc2-c2ccccc21 [Example 3b]", "uom": "µg/mL", "measuredResult": 26}

(1) C[C@@](O)(C(=O)NCC(F)(F)C(F)(F)F)C(=O)N[C@@H]1C(=O)Nc2ccccc2-c2ccccc21 [Example 1b]
(2) C[C@](O)(C(=O)NCCC(F)(F)F)C(=O)N[C@@H]1C(=O)Nc2ccccc2-c2ccccc21 [Example 2c]
Exercise: Compare 1 and 2 and name the one whose reported solubility thermodynamic is smaller. Your choice should be expressed through its label.
Solution: 1
(1: 19 µg/mL, 2: 127 µg/mL)

* * *

Biological target: γ-secretase (Homo sapiens, UniProt P49768)
Construct: HEK293 membrane fraction as a source of γ-secretase
Assay: in vitro assay of γ-secretase activity (HEK293 membrane fraction, recombinant APP substrate, Abeta ELISA)
Format: biochemical
Details: potency (and THESA solubility) of the present example compared with the corresponding example from WO 2005/023772

{"molecule": "CCCC(O)(C(N)=O)C(=O)N(CCC(F)(F)F)[C@@H]1C(=O)Nc2ccccc2-c2ccccc21 (single isomer, unassigned)", "assayedTarget": "γ-secretase (Homo sapiens, UniProt P49768)", "Comments": "Higher potency"}
{"molecule": "CC(O)(C(=O)NCC(F)(F)C(F)(F)F)C(=O)N[C@@H]1C(=O)N(CC(F)(F)F)c2ccccc2-c2ccccc21 (mixture of isomers) [Example 12a]", "assayedTarget": "γ-secretase (Homo sapiens, UniProt P49768)", "Comments": "Higher potency"}

* * *

Target: γ-secretase (Homo sapiens, UniProt P49768)
Construct: HEK293 membrane fraction as a source of γ-secretase
Assay: in vitro assay of γ-secretase activity (HEK293 membrane fraction, recombinant APP substrate, Abeta ELISA)
Format: biochemical
Details: potency (and THESA solubility) of the present example compared with the corresponding example from WO 2005/023772

{"molecule": "C[C@](O)(C(=O)NCC(F)(F)F)C(=O)N[C@@H]1C(=O)N(CC(F)(F)F)c2ccccc2-c2ccccc21 [Example 13b]", "Comments": "Higher potency"}
{"molecule": "CCCC(O)(C(=O)NCCC(F)(F)F)C(=O)N[C@@H]1C(=O)Nc2ccccc2-c2ccccc21 (mixture of isomers)", "Comments": "Higher potency"}

* * *

Item-by-item account of solubility thermodynamic
Assay: THESA assay for determination of the thermodynamic solubility
Format: physicochemical
Conditions: 22.5 °C, aqueous buffer, thermodynamic from solid, second figure of the cell, comparison compounds from WO 2005/023772, 50 mM phosphate buffer, room temperature, read-out: THESA (IC50/THESA, Corresponding Example from WO 2005/023772)

Exercise: So what's the measured solubility thermodynamic for this one? C[C@](F)(C(=O)NCC(F)(F)C(F)(F)F)C(=O)N[C@H]1C(=O)Nc2ccccc2-c2ccccc21 [reference compound]
Solution: < 1 µg/mL

Exercise: So what's the measured solubility thermodynamic for this one? C[C@@](F)(C(=O)NCC(F)(F)C(F)(F)F)C(=O)N[C@H]1C(=O)Nc2ccccc2-c2ccccc21 [reference compound]
Solution: < 1 µg/mL

Exercise: So what's the measured solubility thermodynamic for this one? CC(C)(C(=O)NCC(F)(F)F)C(=O)N[C@H]1C(=O)Nc2ccccc2-c2ccccc21 [reference compound]
Solution: 16 µg/mL

Exercise: So what's the measured solubility thermodynamic for this one? CC(C)(C(=O)NCCC(F)(F)F)C(=O)N[C@H]1C(=O)Nc2ccccc2-c2ccccc21 [reference compound]
Solution: < 1 µg/mL
